The measured values listed here are drawn from patent US12448433B2.

target: DQB1*06:02; experiment: Peptide binding to HLA-DQ allele, competition assay
pIC50: −log10 of the molar value.
Outcome: Criterion met for pIC50 of at least 6; Criterion not met for anything lower.

Worked examples follow.
CC(C)C[C@H](NC(=O)CNC(=O)[C@@H](N)CCCNC(=N)N)C(=O)N[C@@H](CCCCN)C(=O)N[C@@H](CC(C)C)C(=O)N[C@@H](C)C(=O)N[C@H](C(=O)N[C@@H](C)C(=O)N[C@@H](CC(C)C)C(=O)N[C@@H](CO)C(=O)N[C@@H](CC(C)C)C(=O)N[C@@H](CO)C(=O)N[C@@H](CC(N)=O)C(=O)N[C@@H](CCCCN)C(=O)N[C@@H](Cc1ccccc1)C(=O)O)[C@@H](C)O [Peptide 3563.0020]; Criterion met
CC[C@H](C)[C@H](NC(=O)[C@H](CC(C)C)NC(=O)[C@H](CC(N)=O)NC(=O)[C@@H](NC(=O)[C@@H](NC(=O)[C@H](Cc1ccccc1)NC(=O)[C@H](Cc1c[nH]cn1)NC(=O)[C@H](CCCCN)NC(=O)[C@@H](NC(=O)[C@@H](N)Cc1c[nH]cn1)C(C)C)C(C)C)[C@@H](C)CC)C(=O)NCC(=O)N[C@@H](CC(=O)O)C(=O)N[C@@H](Cc1ccccc1)C(=O)N[C@@H](CCC(=O)O)C(=O)N[C@H](C(=O)O)C(C)C [Peptide 3563.0014]; Criterion not met
CC[C@H](C)[C@H](NC(=O)[C@H](CC(C)C)NC(=O)[C@H](CCCCN)NC(=O)[C@H](CO)NC(=O)CNC(=O)[C@@H](N)C(C)C)C(=O)N[C@H](C(=O)N[C@@H](C)C(=O)N[C@@H](CCSC)C(=O)N[C@@H](CO)C(=O)N[C@@H](CO)C(=O)N[C@@H](Cc1c[nH]c2ccccc12)C(=O)N[C@@H](CC(C)C)C(=O)N[C@@H](CCC(N)=O)C(=O)N[C@@H](CCCCN)C(=O)O)C(C)C [Peptide 3563.0008]; Criterion met

Then this molecule:
Task: Does pIC50 meet or surpass 6 for CC[C@H](C)[C@H](NC(=O)[C@H](CC(C)C)NC(=O)[C@@H](N)Cc1ccccc1)C(=O)N[C@@H](Cc1ccc(O)cc1)C(=O)N[C@H](C(=O)N[C@H](C(=O)N[C@@H](CCC(=O)O)C(=O)N[C@@H](CC(C)C)C(=O)N[C@@H](CC(C)C)C(=O)N[C@@H](CCCCN)C(=O)N[C@@H](CCCCN)C(=O)N[C@@H](CC(C)C)C(=O)N[C@@H](CCC(N)=O)C(=O)N[C@@H](CO)C(=O)N[C@H](C(=O)O)[C@@H](C)O)[C@@H](C)O)[C@@H](C)CC [Peptide 3563.0030] ?
Result: Criterion not met

----------
Quick reference: IC50 of the listed items.
target: DPB1*14:01; assay: Peptide binding to HLA-DP allele, competition assay; parameters: species or system human
Reply with the number and its unit after it.

Answered examples (4):
CC[C@H](C)[C@H](NC(=O)[C@H](Cc1ccc(O)cc1)NC(=O)[C@H](CCC(N)=O)NC(=O)[C@H](Cc1c[nH]cn1)NC(=O)[C@@H](NC(=O)[C@@H](N)CCC(N)=O)[C@@H](C)CC)C(=O)N[C@@H](CCSC)C(=O)N[C@@H](C)C(=O)N[C@@H](CC(C)C)C(=O)N[C@@H](CCCNC(=N)N)C(=O)N[C@@H](CCC(=O)O)C(=O)N[C@@H](CCC(=O)O)C(=O)N[C@@H](Cc1ccc(O)cc1)C(=O)N[C@@H](Cc1ccccc1)C(=O)N[C@@H](CC(=O)O)C(=O)O [Peptide 3563.0027]; 1820 nM
CC(C)C[C@H](NC(=O)CNC(=O)[C@@H](N)CCCNC(=N)N)C(=O)N[C@@H](CCCCN)C(=O)N[C@@H](CC(C)C)C(=O)N[C@@H](C)C(=O)N[C@H](C(=O)N[C@@H](C)C(=O)N[C@@H](CC(C)C)C(=O)N[C@@H](CO)C(=O)N[C@@H](CC(C)C)C(=O)N[C@@H](CO)C(=O)N[C@@H](CC(N)=O)C(=O)N[C@@H](CCCCN)C(=O)N[C@@H](Cc1ccccc1)C(=O)O)[C@@H](C)O [Peptide 3563.0020]; 183 nM
CC[C@H](C)[C@H](N)C(=O)N[C@@H](CCCCN)C(=O)N[C@@H](Cc1c[nH]cn1)C(=O)N[C@H](C(=O)N[C@@H](Cc1ccc(O)cc1)C(=O)N[C@@H](C)C(=O)N[C@H](C(=O)N[C@@H](CO)C(=O)N[C@@H](CO)C(=O)N[C@@H](C)C(=O)N[C@@H](C)C(=O)N[C@@H](CC(C)C)C(=O)N[C@@H](CO)C(=O)N[C@@H](C)C(=O)N[C@@H](CO)C(=O)O)[C@@H](C)CC)[C@@H](C)CC [Peptide 3563.0009]; 132 nM
CC[C@H](C)[C@H](NC(=O)[C@H](CC(C)C)NC(=O)[C@H](CCCCN)NC(=O)[C@H](CO)NC(=O)CNC(=O)[C@@H](N)C(C)C)C(=O)N[C@H](C(=O)N[C@@H](C)C(=O)N[C@@H](CCSC)C(=O)N[C@@H](CO)C(=O)N[C@@H](CO)C(=O)N[C@@H](Cc1c[nH]c2ccccc12)C(=O)N[C@@H](CC(C)C)C(=O)N[C@@H](CCC(N)=O)C(=O)N[C@@H](CCCCN)C(=O)O)C(C)C [Peptide 3563.0008]; 1860 nM

Task: Dear colleague, I am looking for the recorded IC50 of the following compound: CC[C@H](C)[C@H](NC(=O)[C@H](CC(C)C)NC(=O)[C@@H](N)CC(C)C)C(=O)N[C@@H](CC(=O)O)C(=O)N[C@H](C(=O)N[C@H](C(=O)N[C@H](C(=O)N[C@@H](Cc1ccc(O)cc1)C(=O)N[C@@H](CC(C)C)C(=O)N[C@H](C(=O)N[C@@H](C)C(=O)N[C@@H](CC(C)C)C(=O)N[C@H](C(=O)N1CCC[C@H]1C(=O)N[C@@H](CCC(=O)O)C(=O)O)[C@@H](C)CC)C(C)C)[C@@H](C)O)C(C)C)C(C)C [Peptide 3563.0002]
Result: 8570 nM

----------
biological target: DPB1*05:01; experiment: Peptide binding to HLA-DP allele, competition assay
measurement type: pIC50
For clarity, pIC50 is expressed as the negative log10 of concentration in mol/L.

Answered examples (2):
CC[C@H](C)[C@H](NC(=O)[C@H](CO)NC(=O)[C@H](Cc1ccc(O)cc1)NC(=O)[C@H](CC(C)C)NC(=O)[C@H](CCCCN)NC(=O)CN)C(=O)N[C@@H](CC(C)C)C(=O)N[C@@H](CCCCN)C(=O)N[C@H](C(=O)N[C@@H](CCC(N)=O)C(=O)N[C@@H](CO)C(=O)N1CCC[C@H]1C(=O)N[C@@H](CC(C)C)C(=O)N[C@@H](Cc1ccccc1)C(=O)N[C@H](C(=O)O)[C@@H](C)O)[C@@H](C)CC [Peptide 3563.0016]; 5.62
CC[C@H](C)[C@H](N)C(=O)N[C@@H](CC(C)C)C(=O)N[C@@H](Cc1ccccc1)C(=O)N[C@@H](CO)C(=O)N[C@@H](Cc1ccc(O)cc1)C(=O)N[C@@H](Cc1ccccc1)C(=O)N[C@@H](CCC(N)=O)C(=O)N[C@@H](CC(=O)O)C(=O)N[C@@H](CC(C)C)C(=O)N[C@H](C(=O)N[C@H](C(=O)N[C@H](C(=O)N[C@@H](CC(C)C)C(=O)N1CCC[C@H]1C(=O)N[C@@H](Cc1ccccc1)C(=O)O)[C@@H](C)O)[C@@H](C)CC)C(C)C [Peptide 3563.0023]; 5.42

Task: Dear colleague, I am looking for the recorded pIC50 of the following compound: CC[C@H](C)[C@H](NC(=O)[C@H](CCCCN)NC(=O)CN)C(=O)N[C@@H](CC(=O)O)C(=O)N[C@@H](Cc1ccccc1)C(=O)N[C@@H](CC(C)C)C(=O)N[C@@H](CC(N)=O)C(=O)N[C@@H](CC(N)=O)C(=O)N[C@@H](Cc1ccc(O)cc1)C(=O)N[C@@H](C)C(=O)N[C@@H](CC(C)C)C(=O)N[C@@H](Cc1ccccc1)C(=O)N[C@@H](CC(C)C)C(=O)N[C@@H](CO)C(=O)N1CCC[C@H]1C(=O)O [Peptide 3563.0019]
Result: 6.37

Task: # iterate: CC(C)C[C@H](NC(=O)[C@H](CCC(N)=O)NC(=O)[C@H](C)NC(=O)[C@H](CC(N)=O)NC(=O)[C@H](C)NC(=O)[C@H](CCC(N)=O)NC(=O)[C@H](Cc1ccccc1)NC(=O)[C@H](CC(=O)O)NC(=O)[C@H](Cc1ccccc1)NC(=O)[C@H](CC(N)=O)NC(=O)[C@H](CC(C)C)NC(=O)[C@@H](NC(=O)[C@H](CCC(=O)O)NC(=O)[C@@H](N)CC(C)C)C(C)C)C(=O)N[C@@H](CO)C(=O)O [Peptide 3563.0017]
Result: 4.40

Task: # iterate: CC[C@H](C)[C@H](N)C(=O)N[C@@H](CC(=O)O)C(=O)N[C@@H](CC(C)C)C(=O)N[C@@H](CO)C(=O)N[C@H](C(=O)N[C@@H](CCC(N)=O)C(=O)N[C@@H](CC(N)=O)C(=O)N[C@@H](Cc1ccc(O)cc1)C(=O)N[C@@H](Cc1c[nH]cn1)C(=O)N[C@H](C(=O)N[C@@H](Cc1ccccc1)C(=O)N[C@@H](CC(C)C)C(=O)N[C@H](C(=O)N[C@@H](Cc1ccc(O)cc1)C(=O)N[C@H](C(=O)O)[C@@H](C)CC)[C@@H](C)CC)[C@@H](C)O)[C@@H](C)CC [Peptide 3563.0029]
Result: 5.04
